- methodSummary: BSK_hDFCGF_Proliferation: Cell Proliferation Assessment in the BioMAP Diversity Plus: hDFCGF Assay (AID 2283059);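 note: curves fitted for both rise and fall of signal versus DMSO baseline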
- runParameters: primary human foreskin fibroblasts
Activity calls are given as the source filed them. Rule for the calls: active = hit-call score of the fitted dose curve at least 0.9, where 1 is the maximum; inactive = score below 0.9.
propertyMeasured: outcome

Example results:
[[record]]
itemsmiles = "OC(Cn1cncn1)(Cn1cncn1)c1ccc(F)cc1F"
testresult = "inactive"

[[record]]
itemsmiles = "O=C(O)c1ccc2c(c1)nc(C(=O)NC1CCN(C3CC3)CC1)n2Cc1cc(-c2ccc(Cl)s2)on1"
testresult = "inactive"

[[record]]
itemsmiles = "C[C@@H](Oc1ccc(CNC(=O)c2cccnc2Oc2ccc3c(c2)OCO3)c(F)c1)C(=O)O"
testresult = "inactive"

[[record]]
itemsmiles = "COS(C)(=O)=O"
testresult = "inactive"


Challenge: Quick check: outcome of CCCCCOC(C)=O ?
Response given: inactive
